target: CYP11B2 (Homo sapiens (Human), UniProt P19099); experiment: G-402 cellular enzyme assay, human CYP11B2 (aldosterone release); conditions: G-402 cells expressing human CYP11B2, 1 μM Deoxycorticosterone
Sequence (P19099 25-503): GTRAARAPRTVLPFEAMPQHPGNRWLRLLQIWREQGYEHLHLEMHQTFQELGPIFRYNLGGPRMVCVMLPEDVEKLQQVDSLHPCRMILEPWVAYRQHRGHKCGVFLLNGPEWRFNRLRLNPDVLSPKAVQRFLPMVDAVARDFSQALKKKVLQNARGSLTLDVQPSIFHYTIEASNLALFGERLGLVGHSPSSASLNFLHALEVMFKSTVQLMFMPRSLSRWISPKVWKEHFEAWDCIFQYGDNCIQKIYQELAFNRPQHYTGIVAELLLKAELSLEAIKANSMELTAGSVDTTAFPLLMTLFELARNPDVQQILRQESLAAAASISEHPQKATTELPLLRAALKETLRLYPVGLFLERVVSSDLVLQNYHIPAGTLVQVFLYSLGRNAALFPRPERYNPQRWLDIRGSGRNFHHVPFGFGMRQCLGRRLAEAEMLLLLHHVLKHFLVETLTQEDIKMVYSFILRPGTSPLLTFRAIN
The reader will find reported EC50 values listed item by item below.
Report as a plain number; the unit nM is understood.

CC(C)(C)OC(=O)COC1CCc2c(-c3ccc(C(F)(F)F)cc3)cncc21 (racemic)    1.4
CN(C)C(=O)COC1CCc2c(-c3ccc(C(F)(F)F)cc3)cncc21 (racemic)    26.9
NC1CCc2c(-c3ccc(C(F)(F)F)c(F)c3)cncc21 (racemic)    54.7

Attention now shifts to the item below.
Query :: Which value of EC50 has been reported for CCC(=O)NC1CCCc2c(-c3ccc(F)c(C)c3)cncc21 (racemic) [Example 27] in the records?
Result :: 14

====

target: CYP11B2 (Homo sapiens (Human), UniProt P19099); assay: G-402 cellular enzyme assay, human CYP11B2 (aldosterone release); conditions: G-402 cells expressing human CYP11B2, 1 μM Deoxycorticosterone
ATTRIBUTE MEASURED: pEC50
Scale: negative log10 of molar concentration, which is what pEC50 denotes.

// known answers, use as guide
CCC(=O)NC1CCCc2c(-c3ccc(C(F)(F)F)c(F)c3)cncc21 (racemic) [Example 39]    7.54
CCCS(=O)(=O)NC1CCc2c(-c3ccc(C(F)(F)F)cc3)cncc21 (racemic)    6.43

Query :: Which value of pEC50 has been reported for CC(=O)NC1CCCc2c(-c3ccc(C#N)cc3)cncc21 (racemic) in the records?
Result :: 7.37

Query :: What do you have for CCC(=O)NC1CCCc2c(-c3ccc(C(F)(F)F)cc3)cncc21 (single isomer, unassigned; (-)) [Example 22] ?
Result :: 5.20

Query :: What do you have for O=S(=O)(NC1CCc2c(-c3ccc(C(F)(F)F)cc3)cncc21)C1CC1 (racemic) ?
Result :: 6.83

Query :: What do you have for CC(=O)N[C@@H]1CCCc2c(-c3ccc(C(F)(F)F)c(F)c3)cncc21 ?
Result :: 7.45

Query :: What do you have for CCC(=O)NC1CCc2c(-c3ccc(F)c(C)c3)cncc21 (single isomer, unassigned; (+)) [Example 60] ?
Result :: 8.70

Query :: What do you have for CCC(=O)NC1CCc2c(-c3ccc(C(F)(F)F)cc3F)cncc21 (racemic) [Example 61] ?
Result :: 7.36

====

The reader will find reported EC50 values listed item by item below.
biological target: CYP11B2 (Homo sapiens (Human), UniProt P19099); experiment: G-402 cellular enzyme assay, human CYP11B2 (aldosterone release); conditions: G-402 cells expressing human CYP11B2, 1 μM Deoxycorticosterone
Report as a plain number; the unit nM is understood.

// known answers, use as guide
CCC(=O)NC1CCCc2c(-c3ccc(C(F)(F)F)cc3F)cncc21 (racemic) [Example 33]    159
CCC(=O)N[C@H]1c2cncc(-c3ccc(C(F)(F)F)cc3)c2CC[C@@H]1C (single isomer, unassigned) [Example 69]    11
Cc1ccc(C2(O)CCCc3c(-c4ccc(C#N)cc4)cncc32)cc1C (single isomer, unassigned; (+)) [Example 15]    5

Query :: Which value of EC50 has been reported for CCC(=O)NC1CCCc2c(-c3ccc(C(F)(F)F)cc3)cncc21 (racemic) [Example 21] in the records?
Result :: 82

Query :: What do you have for CCS(=O)(=O)NC1CCCc2c(-c3ccc(C#N)cc3)cncc21 (racemic) [Example 2] ?
Result :: 207

====

Target: human CYP11B1 (Homo sapiens (Human), UniProt P15538)
Sequence (P15538 25-503): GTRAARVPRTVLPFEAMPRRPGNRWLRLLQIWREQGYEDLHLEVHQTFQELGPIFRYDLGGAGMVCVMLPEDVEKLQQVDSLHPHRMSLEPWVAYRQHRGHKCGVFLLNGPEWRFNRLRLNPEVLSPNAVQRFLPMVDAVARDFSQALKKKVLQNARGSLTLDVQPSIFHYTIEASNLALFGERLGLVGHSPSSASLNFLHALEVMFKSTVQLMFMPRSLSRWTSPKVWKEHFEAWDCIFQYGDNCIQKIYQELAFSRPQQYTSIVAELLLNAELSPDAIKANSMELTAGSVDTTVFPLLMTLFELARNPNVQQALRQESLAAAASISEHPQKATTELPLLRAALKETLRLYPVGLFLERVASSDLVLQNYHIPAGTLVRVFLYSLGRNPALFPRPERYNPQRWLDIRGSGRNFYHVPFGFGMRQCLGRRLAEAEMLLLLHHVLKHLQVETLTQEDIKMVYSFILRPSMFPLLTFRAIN
Experiment: G-402 cellular enzyme assay, human CYP11B1 (cortisol release)
Details: G-402 cells expressing human CYP11B1, 1 μM Deoxycortisol
Text: The expression plasmids contains the ORF for either human/cyno CYP11B1 or CYP11B2 under the control of a suitable promoter (CMV-promoter) and a suitable resistance marker (neomycin). […] Individual cell-clones are then selected and assessed for displaying the desired enzymatic activity using 11-Deoxycorticosterone (Cyp 11B2) or 11-Deoxycortisol (Cyp 11B1) as a substrate. […]
The reader will find reported pEC50 values listed item by item below.
Scale: negative log10 of molar concentration, which is what pEC50 denotes.

// known answers, use as guide
CCC(=O)NC1CCCc2c(-c3ccc(Cl)c(F)c3)cncc21 (single isomer, unassigned; (+)) [Example 38]    6.67
CNC(=O)COC1CCc2c(-c3ccc(C(F)(F)F)cc3)cncc21 (racemic)    6.37
CCC(=O)NC1CCc2c(-c3ccc(C(F)(F)F)c(F)c3)cncc21 (racemic)    5.72
CCS(=O)(=O)NC1CCc2c(-c3ccc(C(F)(F)F)c(F)c3)cncc21 (racemic) [Example 71]    5.52
OC1CCc2c(-c3ccc(C(F)(F)F)c(F)c3)cncc21 (racemic)    7.15
CCC(=O)NC1CCCc2c(-c3cc(F)c(F)cc3F)cncc21 (racemic)    5.94
CCC(=O)NC1CCc2c(-c3ccc(C#N)cc3)cncc21 (single isomer, unassigned; (-)) [Example 18]    5.14
COC(=O)COC1CCc2c(-c3ccc(C(F)(F)F)cc3)cncc21 (racemic)    6.20

Query :: Notebook: pull reported pEC50 for human CYP11B1 (Homo sapiens (Human), UniProt P15538), entry CCC(=O)N[C@@H]1c2cncc(-c3ccc(C(F)(F)F)cc3)c2CC[C@@H]1C (single isomer, unassigned)
Result :: 4.97

Query :: What do you have for CCS(=O)(=O)NC1CCc2c(-c3ccc(C(F)(F)F)c(F)c3)cncc21 (single isomer, unassigned; (+)) [Example 73] ?
Result :: 5.73

Query :: What do you have for CCC(=O)NC1CCCc2c(-c3ccc(F)c(C)c3)cncc21 (single isomer, unassigned; (-)) [Example 28] ?
Result :: 4.52

Query :: What do you have for CCC(=O)NC1CCc2c(-c3ccc(C#N)cc3)cncc21 (single isomer, unassigned; (+)) [Example 19] ?
Result :: 6.76

Query :: What do you have for CC1(O)CCc2c(-c3ccc(C(F)(F)F)cc3)cncc21 (racemic) ?
Result :: 8.30

Query :: What do you have for CC(=O)N[C@@H]1CCCc2c(-c3ccc(C#N)cc3)cncc21 ?
Result :: 6.56

Query :: What do you have for CCC(=O)NC1CCc2c(-c3ccc(C#N)cc3)cncc21 (racemic) [Example 17] ?
Result :: 6.29

Query :: What do you have for CCC(=O)NC1CCCc2c(-c3ccc(Cl)cc3)cncc21 (single isomer, unassigned; (+)) [Example 26] ?
Result :: 6.30

====

biological target: CYP11B2 (Homo sapiens (Human), UniProt P19099); assay: G-402 cellular enzyme assay, human CYP11B2 (aldosterone release); conditions: G-402 cells expressing human CYP11B2, 1 μM Deoxycorticosterone
The reader will find reported pEC50 values listed item by item below.
Scale: negative log10 of molar concentration, which is what pEC50 denotes.

CCC(=O)OC1CCc2c(-c3ccc(C(F)(F)F)c(F)c3)cncc21 (racemic)    7.79
C[C@@H](O)C(=O)NC1CCCc2c(-c3ccc(C(F)(F)F)cc3)cncc21 (single isomer, unassigned; (-)) [Example 48]    7.10
CCC(=O)NC1CCCc2c(-c3ccc(Cl)cc3)cncc21 (single isomer, unassigned; (+)) [Example 26]    7.77
CC(=O)N[C@@H]1CCCc2c(-c3ccc(C#N)cc3)cncc21    7.63
CCC(=O)NC1CCc2c(-c3ccc(F)c(C)c3)cncc21 (single isomer, unassigned; (-)) [Example 59]    5.78

Query :: Which value of pEC50 has been reported for CCC(=O)NC1CCc2c(-c3ccc(Cl)c(F)c3)cncc21 (racemic) [Example 55] in the records?
Result :: 7.92

Query :: What do you have for CCC(=O)NC1CCc2c(-c3ccc(Cl)c(F)c3)cncc21 (single isomer, unassigned; (-)) [Example 56] ?
Result :: 5.49

Query :: What do you have for OC1CCCc2c(-c3ccc(C(F)(F)F)cc3)cncc21 (racemic) [Example 104] ?
Result :: 7.84

Query :: What do you have for CCC(=O)NC1CCCc2c(-c3cc(F)c(F)cc3F)cncc21 (racemic) ?
Result :: 7.57

====

target: human CYP11B1 (Homo sapiens (Human)); test: G-402 cellular enzyme assay, human CYP11B1 (cortisol release); conditions: G-402 cells expressing human CYP11B1, 1 μM Deoxycortisol
pEC50: −log10 of the molar value.
Classify as follows. Reported pEC50 greater than or equal to 6: 1. Reported pEC50 below: 0.

Illustrative cases are given below, each with its answer.
CCC(=O)NC1CCc2c(-c3ccc(C(F)(F)F)cc3)cncc21 (single isomer, unassigned; (+)) [Example 51]    0
O=S(=O)(NC1CCc2c(-c3ccc(C(F)(F)F)cc3)cncc21)C1CC1 (racemic) [Example 94]    0
CCC(=O)NC1CCc2c(-c3ccc(Cl)c(F)c3)cncc21 (single isomer, unassigned; (+)) [Example 57]    1
C[C@@H](O)C(=O)NC1CCCc2c(-c3ccc(C(F)(F)F)cc3)cncc21 (single isomer, unassigned; (-)) [Example 48]    0
CCC(=O)NC1CCCc2c(-c3ccc(F)c(C)c3)cncc21 (racemic) [Example 27]    1

Query :: Confirm if pEC50 reported for the molecule CCC(=O)NC1CCCc2c(-c3ccc(Cl)c(Cl)c3)cncc21 (racemic) [Example 45] is 6 or above.
Result :: 1
